method: NCI Yeast Anticancer Drug Screen. Data for the rad50 strain (AID 155);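 further: 0% = growth of vehicle-only cultures of the same strain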
conditionNotes: S. cerevisiae rad50 strain growth inhibition; at 50.0 µM; stronger effect = higher value
Procedure: Growth inhibition of yeast strains with defined genetic alterations is measured as a screen for potential anti-cancer activity. Selected strains with alterations in DNA damage repair or cell cycle control were exposed to compounds and growth inhibition was measured relative to vehicle treated controls. The strain used in this assay is rad50
About 79,000 compounds went through this panel and 15% of them were active in at least one assay; those are over-represented in the sample as a whole.
What growth inhibition was measured for each of the following?
Output spec: scalar in %, unitless text.

Req: Note growth inhibition for the molecule shown: O=C(Nc1nc2ccccc2n1Cc1ccc(Cl)cc1)NC12CC3CC(CC(C3)C1)C2
Resp: 15.8

Req: Provide only the value of recorded growth inhibition for O=C(O)CCc1coc2ccc(O)cc12
Resp: -0.45

Req: Give reported growth inhibition value for CC(=O)N(CCCCNC(=O)C(F)(F)F)CCCNC(=O)C(F)(F)F
Resp: 2.7

Req: Tell me its growth inhibition given O=[N+]([O-])C1CCC(N=Nc2c(O)ccc3ccccc23)CC1 (configuration not stated) as the entry.
Resp: -9.95

Req: Fill in growth inhibition for record CC(C)c1cccc(C(C)C)c1NC1=CC(=O)C(=O)c2ccccc21
Resp: -7.25

Req: Give recorded growth inhibition. N#CC(c1ccccc1)C1CCCCC1 (configuration not stated)
Resp: -8.65

Req: Name the recorded growth inhibition of the item Cc1cc(C)cc(Sc2c([N+](=O)[O-])ncn2C)c1 in your answer.
Resp: 7.65

Req: For Cc1ccc2c(C)cc(=O)n(C)c2c1 , write its growth inhibition.
Resp: 4.7

Req: Give the reported value of growth inhibition for this record: O=C(CC(C(=O)c1cccs1)c1ccsc1)c1ccc(Cl)s1 (configuration not stated)
Resp: -5.35

Req: Name the recorded growth inhibition of the molecule listed here: COc1ccc([N+](=O)[O-])cc1OC
Resp: 29.9

Req: Tell me growth inhibition reported for COc1cccc(C(OC(=O)c2ccccc2)c2nncc3ccccc23)c1OC (configuration not stated)
Resp: 32.4

Req: Tell me measured growth inhibition for CSc1nc(NC2OC(COC(C)=O)C(OC(C)=O)C(OC(C)=O)C2OC(C)=O)c2c(n1)OCC2=O (configuration not stated) please.
Resp: 2.65

Req: Give reported growth inhibition value for Cc1c(C)c(C)c(CCl)c(CCl)c1C
Resp: 36.1

Req: Note down growth inhibition recorded for COC(=O)c1cc(C(=O)OC)c(C/C(=N/NC(N)=S)C(=O)Nc2ccc(Cl)c(Cl)c2)nc1C/C(=N/NC(N)=S)C(=O)Nc1ccc(Cl)c(Cl)c1
Resp: 28.4

Req: Dear colleague, please send me the reported growth inhibition for Cn1cnc2c1S(=O)(=O)NCN2 when you can.
Resp: 10.7

Req: Determine from records and report growth inhibition for O=[N+]([O-])c1ccc(NC2CCCCC2)nc1
Resp: 14

Req: Name the recorded growth inhibition of the molecule listed here: CCN(CC)C(CC(=O)c1ccccc1)C(=O)c1ccccc1 (configuration not stated)
Resp: 23.9
